TEST_METHOD_NOTES: chemical genetic growth profiling, strain panel (AID 1159580);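 note: tested at 20 µM; growth read once vehicle control cultures reached saturation at 30 °C; 1 = growth at the plate median or of vehicle wells; lower values mean less growth of the strain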
PROTOCOL_CONDITIONS: S. cerevisiae deletion strains, growth OD, locus YJL095W, strain BCK1, stronger effect = lower value
About 2,000 (36%) of roughly 5,500 compounds were called active. About 18% were inconclusive and are not listed. Some of the results follow.
MEASUREMENT_TYPE: normalized growth
// keep it numeric: no unit symbol after the value

Known normalized growth results, listed for orientation:
                                   molecule  recorded_number
0  O=C(O)c1ccccc1-c1c2cc(I)c(=O)c(I)c-2oc2c(I)c(O)c(I)cc12            0.992
1  NC[C@@H]1CC[C@@H](N)[C@@H](O[C@H]2[C@H](O)[C@@H](O[C@H]3O[C@H](CO)[C@@H](O)[C@H](N)[C@H]3O)[C@H](N)C[C@@H]2N)O1            0.984

With those in mind, consider the next molecule.
Would you kindly share the measured normalized growth for Cc1c(C(=S)Nc2ccccc2)sc2ccccc12 ?
0.886

###

TEST_METHOD_NOTES: chemical genetic growth profiling, strain panel (AID 1159580);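 note: tested at 20 µM; growth read once vehicle control cultures reached saturation at 30 °C; 1 = growth at the plate median or of vehicle wells; lower values mean less growth of the strain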
PROTOCOL_CONDITIONS: S. cerevisiae deletion strains, growth OD, locus YML120C, strain ndi1, stronger effect = lower value
Hit rate of the full screen: of about 5,500 compounds, about 2,000 (36%) were called active. Roughly 18% stayed inconclusive and do not appear here. This is one part of the list.
normalized growth values, listed per item
Form field (numeric): enter value without unit.

Look at this molecule and give its reported normalized growth. Cc1cccc(C)c1NC1=NCCCS1
1.01

Dear colleague, I am looking for the recorded normalized growth of the following molecule: CCN(CC)C(=O)c1cccc(C)c1
1.02

###

TEST_METHOD_NOTES: chemical genetic growth profiling, strain panel (AID 1159580);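 note: tested at 20 µM; growth read once vehicle control cultures reached saturation at 30 °C; 1 = growth at the plate median or of vehicle wells; lower values mean less growth of the strain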
PROTOCOL_CONDITIONS: S. cerevisiae deletion strains, growth OD, locus YOR069W, strain VPS5, stronger effect = lower value
In all, about 5,500 compounds went through this assay and about 2,000 (36%) were called active. Another 18% or so got no clear call; they are omitted. The list shows a part of the results.
Parameter normalized growth: see the listing below.
Please state the value as a number alone, without comment.

In [3]: df
Out[3]:
                                   compound  recorded_number
0              CCCCOC(=O)c1ccccc1C(=O)OCCCC            0.977
1  NC(CO)C(=O)NNCc1ccc(O)c(O)c1O (configuration not stated)                1
2              CCCCNc1ccc(C(=O)OCCN(C)C)cc1             1.01
3  CC(C)NCC(O)c1cc(O)cc(O)c1 (configuration not stated)            0.996
4  O=C1[C@H](CCC(O)c2ccc(F)cc2)[C@@H](c2ccc(O)cc2)N1c1ccc(F)cc1 (some centres not stated)            0.987
5                       COC(=O)C1=CCCN(C)C1            0.997

Which value of normalized growth has been reported for O=C1OC(c2ccc(O)cc2)(c2ccc(O)cc2)c2ccccc21 in the records?
0.988

###

TEST_METHOD_NOTES: chemical genetic growth profiling, strain panel (AID 1159580);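 note: tested at 20 µM; growth read once vehicle control cultures reached saturation at 30 °C; 1 = growth at the plate median or of vehicle wells; lower values mean less growth of the strain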
PROTOCOL_CONDITIONS: S. cerevisiae deletion strains, growth OD, locus YCL029C, strain bik1, stronger effect = lower value
The whole screen tested about 5,500 compounds, of which about 2,000 (36%) were called active. Another 18% or so got no clear call; they are omitted. Some of the results follow.
MEASUREMENT_TYPE: normalized growth
Lab note: write the figure by itself, no unit.

Consider the following illustrative entries.
>>> print(df.to_string())
                                   compound   measurement_type  recorded_number
0             COc1c(OC)c2occc2c2oc(=O)ccc12  normalized growth            0.983
1        O=C(O)CN1C(=O)c2cccc3cccc(c23)C1=O  normalized growth            0.978
2  CC1(C)O[C@@H]2CC3C4CCC5=CC(=O)CCC5(C)C4(F)C(O)CC3(C)[C@]2(C(=O)CCl)O1 (stereo partly specified)  normalized growth                1
3               Cc1cccc(Nc2ccccc2C(=O)O)c1C  normalized growth            0.907
4  CO/N=C(\C(=O)N[C@@H]1C(=O)N2C(C(=O)O)=C(COC(C)=O)CS[C@H]12)c1csc(N)n1  normalized growth            0.998

# query: normalized growth of entry COc1c2ccoc2c(OC)c2oc(=O)ccc12
0.965

Look up normalized growth for this compound: CO/N=C(\C(=O)N[C@@H]1C(=O)N2C(C(=O)O)=C(CSc3nc(=O)c(O)nn3C)CS[C@H]12)c1csc(N)n1
0.986

Item C=C1C(C)C2C(Cc3ccccc3)NC(=O)C23OC(=O)/C=C/C(=O)CCCC(C)C/C=C/C3C1O (stereo unspecified) has what recorded normalized growth?
1.01
